Where do these numbers come from? They come from ChEMBL document CHEMBL1909046.

molecular target: Voltage-gated inwardly rectifying potassium channel KCNH2 (Homo sapiens); conditions: hek293; further: in other assays of this panel Not Active means under 50% inhibition at 10 µM
Sequence (Q12809 whole entry): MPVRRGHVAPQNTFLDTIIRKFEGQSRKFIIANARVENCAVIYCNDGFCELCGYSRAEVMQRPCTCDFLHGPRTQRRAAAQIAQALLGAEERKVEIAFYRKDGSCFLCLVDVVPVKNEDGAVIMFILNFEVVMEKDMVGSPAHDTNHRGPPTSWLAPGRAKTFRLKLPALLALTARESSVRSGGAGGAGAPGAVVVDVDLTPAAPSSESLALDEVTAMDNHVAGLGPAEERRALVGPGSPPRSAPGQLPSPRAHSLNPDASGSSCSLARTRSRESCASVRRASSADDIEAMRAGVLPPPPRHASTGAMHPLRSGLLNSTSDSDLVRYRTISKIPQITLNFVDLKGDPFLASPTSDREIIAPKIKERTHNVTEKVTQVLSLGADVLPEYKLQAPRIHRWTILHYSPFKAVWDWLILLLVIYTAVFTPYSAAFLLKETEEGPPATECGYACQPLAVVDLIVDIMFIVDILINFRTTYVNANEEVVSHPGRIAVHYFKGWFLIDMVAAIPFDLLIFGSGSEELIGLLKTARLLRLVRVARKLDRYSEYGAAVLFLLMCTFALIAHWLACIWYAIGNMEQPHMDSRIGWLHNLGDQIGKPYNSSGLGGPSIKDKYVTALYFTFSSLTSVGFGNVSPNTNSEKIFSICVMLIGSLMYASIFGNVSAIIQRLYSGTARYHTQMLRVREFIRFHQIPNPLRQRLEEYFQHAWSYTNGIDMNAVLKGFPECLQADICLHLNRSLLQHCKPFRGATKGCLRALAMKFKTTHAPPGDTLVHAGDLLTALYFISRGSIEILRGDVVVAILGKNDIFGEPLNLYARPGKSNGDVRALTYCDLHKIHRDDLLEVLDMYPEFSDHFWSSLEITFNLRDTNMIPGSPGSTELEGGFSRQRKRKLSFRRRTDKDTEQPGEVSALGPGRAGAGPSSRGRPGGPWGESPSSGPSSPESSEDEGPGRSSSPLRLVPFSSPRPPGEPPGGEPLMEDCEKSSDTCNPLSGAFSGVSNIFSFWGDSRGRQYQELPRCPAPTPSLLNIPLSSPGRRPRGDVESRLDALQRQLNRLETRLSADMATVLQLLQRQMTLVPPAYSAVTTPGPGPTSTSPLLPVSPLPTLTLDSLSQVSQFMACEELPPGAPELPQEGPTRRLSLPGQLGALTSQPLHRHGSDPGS

{"columns": ["compound", "IC50"],
 "data": [
  ["CC(C)(Oc1ccc(Cl)cc1)C(=O)O", "Not Active"],
  ["CC[C@@]1(O)C[C@H](O[C@H]2C[C@H](N(C)C)[C@H](O[C@H]3C[C@H](O)[C@H](O[C@H]4CCC(=O)[C@H](C)O4)[C@H](C)O3)[C@H](C)O2)c2c(cc3c(c2O)C(=O)c2c(O)cccc2C3=O)[C@H]1C(=O)OC", "Not Active"],
  ["CC1(C)O[C@@H]2C[C@H]3[C@@H]4CCC5=CC(=O)CC[C@]5(C)[C@@]4(F)[C@@H](O)C[C@]3(C)[C@]2(C(=O)CCl)O1 [HALCINONIDE]", "Not Active"],
  ["Cc1ccccc1N1C(=O)c2cc(S(N)(=O)=O)c(Cl)cc2NC1C (stereo unspecified)", "Not Active"],
  ["CC(C)[C@H]1C(=O)N2CCC[C@H]2[C@]2(O)O[C@](NC(=O)[C@@H]3C=C4c5cccc6[nH]cc(c56)C[C@H]4N(C)C3)(C(C)C)C(=O)N12", "Not Active"],
  ["CC(C)CN(C[C@@H](O)[C@H](Cc1ccccc1)NC(=O)O[C@H]1CCOC1)S(=O)(=O)c1ccc(N)cc1", "Not Active"],
  ["NCCCCCC(=O)O", "Not Active"],
  ["Cc1c(C)c2c(c(C)c1O)CC[C@@](C)(CCC[C@H](C)CCC[C@H](C)CCCC(C)C)O2", "Not Active"],
  ["C1CCC(C(CC2CCCCN2)C2CCCCC2)CC1 (stereo unspecified)", "Not Active"],
  ["N[C@@H](Cc1ccc(O)c(O)c1)C(=O)O", "Not Active"],
  ["CCCN1C[C@H](CSC)C[C@@H]2c3cccc4[nH]cc(c34)C[C@H]21 [PERGOLIDE]", "Not Active"],
  ["c1ccc2c(c1)c1cccc3ccc4cccc2c4c31 [BENZO[E]PYRENE]", "Not Active"],
  ["CC(=O)O[C@@]12CO[C@@H]1C[C@H](O)[C@@]1(C)C(=O)[C@H](O)C3=C(C)[C@@H](OC(=O)[C@H](O)[C@@H](NC(=O)OC(C)(C)C)c4ccccc4)C[C@@](O)([C@@H](OC(=O)c4ccccc4)[C@H]21)C3(C)C.O.O.O", "Not Active"],
  ["O=NN(CCCl)C(=O)NC1CCCCC1", "Not Active"],
  ["CO[C@H]1/C=C/O[C@@]2(C)Oc3c(C)c(O)c4c(O)c(c(/C=N/N5CCN(C)CC5)c(O)c4c3C2=O)NC(=O)/C(C)=C\\C=C\\[C@H](C)[C@H](O)[C@@H](C)[C@@H](O)[C@@H](C)[C@H](OC(C)=O)[C@@H]1C", "Not Active"],
  ["CCCOc1ccccc1-c1nc2nn[nH]c2c(=O)[nH]1", "Not Active"],
  ["C[C@H](CCC(=O)O)[C@H]1CC[C@H]2[C@@H]3[C@H](O)C[C@@H]4C[C@H](O)CC[C@]4(C)[C@H]3C[C@H](O)[C@]12C", "Not Active"],
  ["Nc1c(Br)cc(Br)cc1CN[C@H]1CC[C@H](O)CC1", "Not Active"],
  ["CCCCc1nc(Cl)c(CO)n1Cc1ccc(-c2ccccc2-c2nnn[nH]2)cc1", "Not Active"],
  ["Cc1onc(O)c1CC(N)C(=O)O (racemic) [(R,S)-AMPA]", "Not Active"],
  ["Nc1c2c(nc3ccccc13)CCCC2", "Not Active"],
  ["C[C@]12CCC(=O)C=C1CC[C@@H]1[C@@H]2CC[C@@]2(C)[C@H]1CC[C@]2(C)O", "Not Active"],
  ["COc1nc(C)nc(Cl)c1NC1=NCCN1", "Not Active"],
  ["CN(Cc1ccc(C(C)(C)C)cc1)Cc1cccc2ccccc12", "Not Active"],
  ["O=C(O)CCCc1ccc(N(CCCl)CCCl)cc1", "Not Active"],
  ["N[C@@H](Cc1ccc(N(CCCl)CCCl)cc1)C(=O)O", "Not Active"],
  ["C[C@H](CS)C(=O)N1CCC[C@H]1C(=O)O", "Not Active"],
  ["CC(O)CO (stereo unspecified)", "Not Active"],
  ["Cc1onc(-c2ccccc2Cl)c1C(=O)N[C@@H]1C(=O)N2[C@@H]1SC(C)(C)[C@@H]2C(=O)O", "Not Active"],
  ["CCCC1O[C@@H]2C[C@H]3[C@@H]4CCC5=CC(=O)C=C[C@]5(C)[C@H]4[C@@H](O)C[C@]3(C)[C@]2(C(=O)CO)O1 (stereo partly specified) [BUDESONIDE]", "Not Active"],
  ["NC1=NC(=O)C(c2ccccc2)O1 (stereo unspecified)", "Not Active"]
]}
